Just for reference, ChEMBL document CHEMBL1137999 is where these values come from.

experiment-description: Area under plasma-time concentration curve when administered at 1 mg/kg dose
Type: ADME, organism-based
Set-up: dose 1 mg/kg
run-parameters: rat
For each record, write down the corresponding AUC.

Briefly, AUC measured for `Cc1ccc(NC(=O)c2cccc(N3CCOCC3)c2)cc1NC(=O)c1ccc(OCc2cscn2)cc1` : < 0.12 µM·h

Briefly, AUC measured for `Cc1ccc(NC(=O)c2cc(F)cc(N3CCOCC3)c2)cc1NC(=O)c1ccc(OCc2ccccn2)cc1` : 0.13 µM·h

Briefly, AUC measured for `Cc1ccc(NC(=O)c2cccc(N3CCOCC3)c2)cc1NC(=O)c1ccc(OCc2ccncc2)cc1` : 0.13 µM·h

Briefly, AUC measured for `Cc1nc(COc2ccc(C(=O)Nc3cc(NC(=O)c4cccc(N5CCOCC5)c4)ccc3C)cc2)cs1` : 2.03 µM·h

Briefly, AUC measured for `Cc1ccc(NC(=O)c2cc(F)cc(N3CCOCC3)c2)cc1NC(=O)c1ccc(OCc2ccncc2)cc1` : < 0.02 µM·h

Briefly, AUC measured for `Cc1ccc(NC(=O)c2cc(F)cc(N3CCOCC3)c2)cc1NC(=O)c1ccc(OCc2cscn2)cc1` : 0.71 µM·h

* * *

property-label: IC50 (nM)
Please give a number only; it is taken to be in nM.

Known value: Mitogen-activated protein kinase 14 (Homo sapiens, UniProt Q16539) IC50 of the compound `Cc1ccc(NC(=O)c2cccc(N(C)C)c2)cc1NC(=O)c1ccc(O)cc1` equals 180

Known value: Mitogen-activated protein kinase 14 (Homo sapiens, UniProt Q16539) IC50 of the compound `Cc1ccc(NC(=O)c2cc(F)cc(N3CCOCC3)c2)cc1NC(=O)c1ccc(OCc2ccccn2)cc1` equals 60

Known value: Mitogen-activated protein kinase 14 (Homo sapiens, UniProt Q16539) IC50 of the compound `Cc1nc(COc2ccc(C(=O)Nc3cc(NC(=O)c4cc(F)cc(N5CCOCC5)c4)ccc3C)cc2)cs1` equals 90

Known value: Mitogen-activated protein kinase 14 (Homo sapiens, UniProt Q16539) IC50 of the compound `CCOc1ccc(C(=O)Nc2cc(NC(=O)c3cccc(N(C)C)c3)ccc2C)cc1OCC` equals 50

Known value: Mitogen-activated protein kinase 14 (Homo sapiens, UniProt Q16539) IC50 of the compound `Cc1ccc(NC(=O)c2ccnc(N3CCOCC3)c2)cc1NC(=O)c1ccc(OCc2ccccn2)cc1` equals 10

Known value: Mitogen-activated protein kinase 14 (Homo sapiens, UniProt Q16539) IC50 of the compound `COc1ccc(C(=O)Nc2cc(NC(=O)c3cccc(N(C)C)c3)ccc2F)cc1OC` equals 1900

Known value: Mitogen-activated protein kinase 14 (Homo sapiens, UniProt Q16539) IC50 of the compound `Cc1nc(COc2ccc(C(=O)Nc3cc(NC(=O)c4cccc(N5CCOCC5)c4)ccc3C)cc2)cs1` equals 20

Known value: Mitogen-activated protein kinase 14 (Homo sapiens, UniProt Q16539) IC50 of the compound `COc1ccc(C(=O)Nc2cc(NC(=O)c3cccc(N(C)C)c3)ccc2C)cc1` equals 180

Known value: Mitogen-activated protein kinase 14 (Homo sapiens, UniProt Q16539) IC50 of the compound `COc1ccc(C(=O)Nc2cc(NC(=O)c3cccc(N(C)C)c3)ccc2C)cc1OC` equals 180

Known value: Mitogen-activated protein kinase 14 (Homo sapiens, UniProt Q16539) IC50 of the compound `Cc1ccc(NC(=O)c2cccc(N3CCOCC3)c2)cc1NC(=O)c1ccc(OCc2ccncc2)cc1` equals 20
